molecular target: TRPM6 (human) (UniProt Q9BX84); assay: KINOMEscan competition binding; details: compound 10.0 µM
Sequence (Q9BX84 whole entry, looked up): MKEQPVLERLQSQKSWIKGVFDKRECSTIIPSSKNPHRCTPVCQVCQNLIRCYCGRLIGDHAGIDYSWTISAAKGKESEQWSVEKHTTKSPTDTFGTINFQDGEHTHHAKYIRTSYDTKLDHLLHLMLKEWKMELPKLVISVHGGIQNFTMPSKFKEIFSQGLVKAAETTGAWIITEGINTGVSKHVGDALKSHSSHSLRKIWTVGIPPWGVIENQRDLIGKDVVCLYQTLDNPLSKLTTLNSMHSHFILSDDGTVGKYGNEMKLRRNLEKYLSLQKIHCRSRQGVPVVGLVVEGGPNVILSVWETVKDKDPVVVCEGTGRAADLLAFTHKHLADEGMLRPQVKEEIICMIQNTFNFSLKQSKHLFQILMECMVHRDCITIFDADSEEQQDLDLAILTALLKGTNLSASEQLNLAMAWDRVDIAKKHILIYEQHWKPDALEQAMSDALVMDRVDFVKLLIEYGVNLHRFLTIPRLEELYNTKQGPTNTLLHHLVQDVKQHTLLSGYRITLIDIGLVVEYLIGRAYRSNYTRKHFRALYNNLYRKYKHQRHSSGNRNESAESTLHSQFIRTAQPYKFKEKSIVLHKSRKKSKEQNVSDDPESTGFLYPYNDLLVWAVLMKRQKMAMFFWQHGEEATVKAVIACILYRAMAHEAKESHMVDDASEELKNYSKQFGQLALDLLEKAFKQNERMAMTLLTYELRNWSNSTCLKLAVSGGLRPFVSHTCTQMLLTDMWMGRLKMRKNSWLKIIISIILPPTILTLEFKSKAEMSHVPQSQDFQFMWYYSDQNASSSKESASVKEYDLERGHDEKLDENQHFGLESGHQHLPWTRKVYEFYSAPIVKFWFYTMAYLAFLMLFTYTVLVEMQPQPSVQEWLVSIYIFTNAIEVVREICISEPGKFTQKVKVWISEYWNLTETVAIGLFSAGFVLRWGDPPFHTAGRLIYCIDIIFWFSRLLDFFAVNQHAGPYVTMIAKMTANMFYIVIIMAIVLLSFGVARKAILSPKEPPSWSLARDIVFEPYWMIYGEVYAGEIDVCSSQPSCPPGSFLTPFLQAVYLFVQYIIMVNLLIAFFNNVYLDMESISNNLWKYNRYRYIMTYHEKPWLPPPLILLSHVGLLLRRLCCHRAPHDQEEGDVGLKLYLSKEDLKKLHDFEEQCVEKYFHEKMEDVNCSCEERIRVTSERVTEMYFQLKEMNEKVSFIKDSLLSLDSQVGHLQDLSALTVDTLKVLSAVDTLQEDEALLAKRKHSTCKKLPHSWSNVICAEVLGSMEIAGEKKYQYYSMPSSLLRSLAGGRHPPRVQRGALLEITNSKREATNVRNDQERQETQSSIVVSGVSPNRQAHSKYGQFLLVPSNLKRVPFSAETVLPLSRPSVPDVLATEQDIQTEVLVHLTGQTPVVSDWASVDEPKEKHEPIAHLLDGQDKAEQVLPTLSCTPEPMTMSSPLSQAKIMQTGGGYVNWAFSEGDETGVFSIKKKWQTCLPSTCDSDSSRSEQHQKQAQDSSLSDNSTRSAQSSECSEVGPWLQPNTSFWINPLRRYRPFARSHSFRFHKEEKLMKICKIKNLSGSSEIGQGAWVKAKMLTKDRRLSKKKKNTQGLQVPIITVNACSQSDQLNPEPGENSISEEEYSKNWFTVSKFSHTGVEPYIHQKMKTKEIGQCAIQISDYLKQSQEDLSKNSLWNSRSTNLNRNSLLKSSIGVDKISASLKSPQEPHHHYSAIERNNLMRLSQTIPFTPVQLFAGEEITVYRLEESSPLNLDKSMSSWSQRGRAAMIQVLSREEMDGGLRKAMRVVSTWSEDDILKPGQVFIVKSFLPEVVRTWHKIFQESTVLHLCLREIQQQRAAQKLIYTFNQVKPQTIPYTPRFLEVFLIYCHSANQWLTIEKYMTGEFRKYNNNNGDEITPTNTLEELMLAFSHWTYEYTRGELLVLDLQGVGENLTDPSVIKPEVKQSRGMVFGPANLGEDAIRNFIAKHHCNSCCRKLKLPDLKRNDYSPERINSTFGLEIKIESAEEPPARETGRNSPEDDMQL
recorded metric: kinase still bound, per cent of control (%)

given_smiles=O=C(NOC[C@H](O)CO)c1ccc(F)c(F)c1Nc1ccc(I)cc1F recorded_metric="kinase still bound, per cent of control" u=% experimental_value=100
given_smiles=O=C(O)c1ccc(Nc2ncc3c(n2)-c2ccc(Cl)cc2C(c2c(F)cccc2F)=NC3)cc1 recorded_metric="kinase still bound, per cent of control" u=% experimental_value=100
given_smiles=O=C(NC1CC1)c1cccc(-c2ccc3c(NC(=O)C4CC4)n[nH]c3c2)c1 recorded_metric="kinase still bound, per cent of control" u=% experimental_value=100
given_smiles=O=C1Nc2ccc(I)cc2/C1=C/c1cc(Br)c(O)c(Br)c1 recorded_metric="kinase still bound, per cent of control" u=% experimental_value=100
given_smiles=CCC(=O)N1CCN(c2ccc(-n3c(=O)ccc4cnc5ccc(-c6cnc7ccccc7c6)cc5c43)cc2C(F)(F)F)CC1 recorded_metric="kinase still bound, per cent of control" u=% experimental_value=100
given_smiles=COc1cc(N2CCN(C)CC2)ccc1Nc1nc(N)c(C(=O)c2c(Cl)cccc2Cl)s1 recorded_metric="kinase still bound, per cent of control" u=% experimental_value=5.2
given_smiles=CCN1CCN(Cc2ccc(Nc3ncc4c(n3)N(C)c3ccccc3C(=O)N4C)cc2C(F)(F)F)CC1 recorded_metric="kinase still bound, per cent of control" u=% experimental_value=100
given_smiles=N#Cc1c(NC(=O)c2cccc3ccccc23)sc2c1CCCC2 recorded_metric="kinase still bound, per cent of control" u=% experimental_value=100
given_smiles=Cc1ccc2nc(NCCN)c3ncc(C)n3c2c1 recorded_metric="kinase still bound, per cent of control" u=% experimental_value=87
given_smiles=C[C@@H](Oc1cc(-n2cnc3ccc(CN4CCN(C)CC4)cc32)sc1C(N)=O)c1ccccc1C(F)(F)F recorded_metric="kinase still bound, per cent of control" u=% experimental_value=100
given_smiles=Cc1ccc(NC(=O)c2cccc(C(C)(C)C#N)c2)cc1Nc1ccc2ncn(C)c(=O)c2c1 recorded_metric="kinase still bound, per cent of control" u=% experimental_value=100
given_smiles=CN(C)C/C=C/C(=O)Nc1cccc(Nc2ncc3c(n2)N(C)c2ccccc2C(=O)N3C)c1 recorded_metric="kinase still bound, per cent of control" u=% experimental_value=91
given_smiles=CCCS(=O)(=O)Nc1ccc(F)c(C(=O)c2c[nH]c3ncc(-c4ccc(Cl)cc4)cc23)c1F recorded_metric="kinase still bound, per cent of control" u=% experimental_value=100
given_smiles=C=CC(=O)Nc1cc(NC(=O)c2ccc(C)c(NC(=O)c3ccno3)c2)cc(C(F)(F)F)c1 recorded_metric="kinase still bound, per cent of control" u=% experimental_value=100
given_smiles=C=CC(=O)Nc1cccc(Nc2nc(N[C@H]3CC[C@H](N(C)C)CC3)nc3c2ncn3C(C)C)c1 recorded_metric="kinase still bound, per cent of control" u=% experimental_value=66
given_smiles=Nc1ccc(-c2ccc3ncc4ccc(=O)n(-c5cccc(C(F)(F)F)c5)c4c3c2)cn1 recorded_metric="kinase still bound, per cent of control" u=% experimental_value=71
given_smiles=Cc1cc([C@@H](C)Nc2ccccc2C(=O)O)c2nc(N3CCOCC3)cc(=O)n2c1 recorded_metric="kinase still bound, per cent of control" u=% experimental_value=100
